Items are presented alongside their recorded Anti-bacterial activity (MIC), strain ECO− 15-4.
Test system: Escherichia coli (including ESBLs, non-ESBLs)
Test: MIC, two-fold agar dilution (CLSI), clinical isolates
Type: cell-based
Conditions: clinical isolate ECO− 15-4
Return type: number; implicit unit µg/mL.

Fill in: Anti-bacterial activity (MIC), strain ECO− 15-4 of O=CN(O)C[C@@H](CC1CCCC1)C(=O)N1CC2(CC2)C[C@H]1C(=O)Nc1nncs1 [Example 41] is ___
32

GET /values?readout=Anti-bacterial activity (MIC), strain ECO− 15-4&item= O=C(C[C@@H](CC1CCCC1)C(=O)N1CC2(CC2)C[C@H]1C(=O)Nc1ccncn1)NO [Example 63]
16

Look up Anti-bacterial activity (MIC), strain ECO− 15-4: O=C(C[C@@H](CC1CCCC1)C(=O)N1CC2(CC2)C[C@H]1c1nc2ccccc2[nH]1)NO [Example 75]
32

Recorded Anti-bacterial activity (MIC), strain ECO− 15-4 of O=C(C[C@@H](CC1CCCC1)C(=O)N1CC2(CC2)C[C@H]1C(=O)Nc1ncco1)NO [Example 69] , please.
32

Look at this compound and give its reported Anti-bacterial activity (MIC), strain ECO− 15-4. O=C(C[C@@H](CC1CCCC1)C(=O)N1CC2(CC2)C[C@H]1C(=O)Nc1cccnn1)NO [Example 66]
8

Any idea what its Anti-bacterial activity (MIC), strain ECO− 15-4 is? The compound is O=CN(O)C[C@@H](CC1CCCC1)C(=O)N1CC2(CC2)C[C@H]1C(=O)Nc1nccs1 (stereo in doubt) [Example 40]
32

Quick one: Anti-bacterial activity (MIC), strain ECO− 15-4 of O=C(C[C@@H](CC1CCCC1)C(=O)N1CC2(CC2)C[C@H]1C(=O)Nc1ncccc1F)NO [Example 67] ?
32

Tell me the measured Anti-bacterial activity (MIC), strain ECO− 15-4 of O=C(C[C@@H](CC1CCCC1)C(=O)N1CC2(CC2)C[C@H]1C(=O)Nc1ccc(F)cn1)NO [Example 64] , please.
16
